Form field: pIC50 (one value per entry).
- TARGET_OR_SYSTEM: Cholecystokinin receptor type A (Homo sapiens)
- Sequence (P32238 whole entry): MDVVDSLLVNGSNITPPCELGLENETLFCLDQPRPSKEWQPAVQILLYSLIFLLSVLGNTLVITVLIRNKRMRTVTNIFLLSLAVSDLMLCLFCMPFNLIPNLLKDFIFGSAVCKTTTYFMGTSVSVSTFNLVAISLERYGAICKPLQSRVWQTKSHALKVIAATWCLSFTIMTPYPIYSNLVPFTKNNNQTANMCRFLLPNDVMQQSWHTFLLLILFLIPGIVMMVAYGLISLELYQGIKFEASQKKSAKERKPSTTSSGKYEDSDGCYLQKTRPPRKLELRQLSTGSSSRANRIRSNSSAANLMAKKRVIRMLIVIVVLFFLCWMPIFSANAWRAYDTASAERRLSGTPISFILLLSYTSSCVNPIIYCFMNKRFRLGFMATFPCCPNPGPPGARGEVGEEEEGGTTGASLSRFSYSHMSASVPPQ
- METHOD: Displacement of [125I]-CCK-8 from human CCK1R expressed in human 1321N1 cell membranes after 2 hrs by SPA assay
Numbered stars: 1 amine (or outer) side, 2 acyl side, 3 side chain; on linkers, the order of the positions; unused ones are H or OH. Square brackets hold non-standard residues; d marks the D form. Peptide text beside a SMILES is read from it. * marks the point of attachment. sY = N[C@@H](Cc1ccc(OS(=O)(=O)O)cc1)C(=O)O; C18 diacid = O=C(O)CCCCCCCCCCCCCCCCC(=O)*; γGlu = O=C(O)[C@H](CCC(=O)[*:2])N[*:1]; Glutaryl = O=C(CCCC(=O)[*:2])[*:1]; NMeD = CN[C@@H](CC(=O)O)C(=O)O; dNMeD = CN[C@H](CC(=O)O)C(=O)O; Nle = CCCC[C@H](N)C(=O)O; X1 = O=C(Cc1ccc(O)cc1)*; Dap = NC[C@H](N)C(=O)O; AEEA = NCCOCCOCC(=O)O
# reply with the number alone; pIC50 is -log10 of concentration in mol/L

Reference set (2 entries):
compound="CCCC[C@H](NC(=O)[C@H](CNC(=O)CCCC(=O)O)NC(=O)[C@H](CC(=O)O)NC(=O)COCCOCCNC(=O)COCCOCCNC(=O)CC[C@H](NC(=O)CCCCCCCCCCCCCCCCC(=O)O)C(=O)O)C(=O)NCC(=O)N[C@@H](Cc1c[nH]c2ccccc12)C(=O)N[C@@H](CCCC)C(=O)N[C@@H](CC(=O)O)C(=O)N[C@@H](Cc1ccccc1)C(N)=O ({C18 diacid-γGlu-AEEA-AEEA}-D[Dap](Glutaryl)[Nle]GW[Nle]DF-NH2)" metric=pIC50 experimental_result=6.08
compound="CCCC[C@H](NC(=O)Cc1ccc(O)cc1)C(=O)NCC(=O)N[C@@H](Cc1c[nH]c2ccccc12)C(=O)N[C@@H](CCCC)C(=O)N(C)[C@@H](CC(=O)O)C(=O)N[C@@H](Cc1ccccc1)C(N)=O (X1-[Nle]GW[Nle][NMeD]F-NH2)" metric=pIC50 experimental_result=7.81

Challenge: Complete the entry with pIC50 for CCCC[C@H](NC(=O)[C@H](Cc1c[nH]c2ccccc12)NC(=O)CNC(=O)[C@H](CCC(=O)O)NC(=O)[C@H](Cc1ccc(OS(=O)(=O)O)cc1)NC(=O)[C@H](CC(=O)O)NC(=O)COCCOCCNC(=O)COCCOCCNC(=O)CC[C@H](NC(=O)CCCCCCCCCCCCCCCCC(=O)O)C(=O)O)C(=O)N[C@@H](CC(=O)O)C(=O)N[C@@H](Cc1ccccc1)C(N)=O ({C18 diacid-γGlu-AEEA-AEEA}-D[sY]EGW[Nle]DF-NH2)
Response given: 8.90

Challenge: Complete the entry with pIC50 for CCCC[C@H](NC(=O)Cc1ccc(O)cc1)C(=O)NCC(=O)N[C@@H](Cc1c[nH]c2ccccc12)C(=O)N[C@@H](CCCC)C(=O)N(C)[C@H](CC(=O)O)C(=O)N[C@@H](Cc1ccccc1)C(N)=O (X1-[Nle]GW[Nle][dNMeD]F-NH2)
Response given: 8.15

* * *

- TARGET_OR_SYSTEM: Cholecystokinin receptor type A (Homo sapiens)
- Sequence (P32238 whole entry): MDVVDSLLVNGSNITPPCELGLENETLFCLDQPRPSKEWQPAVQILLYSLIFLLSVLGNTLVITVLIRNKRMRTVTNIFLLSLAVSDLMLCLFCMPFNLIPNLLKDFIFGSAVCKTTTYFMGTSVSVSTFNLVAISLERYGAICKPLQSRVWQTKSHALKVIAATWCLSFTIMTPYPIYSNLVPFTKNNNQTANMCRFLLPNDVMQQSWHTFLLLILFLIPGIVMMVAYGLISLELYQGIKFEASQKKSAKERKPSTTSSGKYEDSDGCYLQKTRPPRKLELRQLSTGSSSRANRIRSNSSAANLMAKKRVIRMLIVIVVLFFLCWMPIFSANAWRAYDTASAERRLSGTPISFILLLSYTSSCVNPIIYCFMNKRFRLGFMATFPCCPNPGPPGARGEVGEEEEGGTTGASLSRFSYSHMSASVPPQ
- METHOD: Displacement of [125I]-CCK-8 from human CCK1R expressed in human 1321N1 cell membranes after 2 hrs by SPA assay
Numbered stars: 1 amine (or outer) side, 2 acyl side, 3 side chain; on linkers, the order of the positions; unused ones are H or OH. Square brackets hold non-standard residues; d marks the D form. Peptide text beside a SMILES is read from it. * marks the point of attachment. Phe(4-CH2SO3H) = N[C@@H](Cc1ccc(CS(=O)(=O)O)cc1)C(=O)O; sY = N[C@@H](Cc1ccc(OS(=O)(=O)O)cc1)C(=O)O; C18 diacid = O=C(O)CCCCCCCCCCCCCCCCC(=O)*; γGlu = O=C(O)[C@H](CCC(=O)[*:2])N[*:1]; 1Nal = N[C@@H](Cc1cccc2ccccc12)C(=O)O; NMeF = CN[C@@H](Cc1ccccc1)C(=O)O; NMeD = CN[C@@H](CC(=O)O)C(=O)O; dNMeD = CN[C@H](CC(=O)O)C(=O)O; Nle = CCCC[C@H](N)C(=O)O; AEEA = NCCOCCOCC(=O)O
METRIC: pIC50
# reply with the number alone; pIC50 is -log10 of concentration in mol/L

Reference set (3 entries):
molecule="CCCC[C@H](NC(=O)[C@H](Cc1c[nH]c2ccccc12)NC(=O)CNC(=O)[C@H](CC(C)C)NC(=O)[C@H](Cc1ccc(CS(=O)(=O)O)cc1)NC(=O)[C@H](CC(=O)O)NC(=O)COCCOCCNC(=O)COCCOCCNC(=O)CC[C@H](NC(=O)CCCCCCCCCCCCCCCCC(=O)O)C(=O)O)C(=O)N[C@@H](CC(=O)O)C(=O)N[C@@H](Cc1ccccc1)C(N)=O ({C18 diacid-γGlu-AEEA-AEEA}-D[Phe(4-CH2SO3H)]LGW[Nle]DF-NH2)" experimental_result=9.61
molecule="CCCC[C@H](NC(=O)[C@H](Cc1c[nH]c2ccccc12)NC(=O)[C@H](CCC(=O)O)NC(=O)[C@H](CCCC)NC(=O)[C@H](Cc1ccc(OS(=O)(=O)O)cc1)NC(=O)[C@H](CC(=O)O)NC(=O)COCCOCCNC(=O)COCCOCCNC(=O)CC[C@H](NC(=O)CCCCCCCCCCCCCCCCC(=O)O)C(=O)O)C(=O)N[C@@H](CC(=O)O)C(=O)N[C@@H](Cc1ccccc1)C(N)=O ({C18 diacid-γGlu-AEEA-AEEA}-D[sY][Nle]EW[Nle]DF-NH2)" experimental_result=5.40
molecule=CCCC[C@H](NC(=O)[C@H](Cc1c[nH]c2ccccc12)NC(=O)CNC(=O)[C@H](CC(C)C)NC(=O)[C@H](Cc1ccc(OS(=O)(=O)O)cc1)NC(=O)[C@H](CC(=O)O)NC(=O)COCCOCCNC(=O)COCCOCCNC(=O)CC[C@H](NC(=O)CCCCCCCCCCCCCCCCC(=O)O)C(=O)O)C(=O)N(C)[C@H](CC(=O)O)C(=O)N(C)[C@@H](Cc1ccccc1)C(N)=O experimental_result=10.13

Challenge: Complete the entry with pIC50 for CCCC[C@H](NC(=O)[C@H](Cc1ccc(CS(=O)(=O)O)cc1)NC(=O)[C@H](CC(=O)O)NC(=O)COCCOCCNC(=O)COCCOCCNC(=O)CC[C@H](NC(=O)CCCCCCCCCCCCCCCCC(=O)O)C(=O)O)C(=O)NCC(=O)N[C@@H](Cc1c[nH]c2ccccc12)C(=O)N[C@@H](CCCC)C(=O)N(C)[C@@H](CC(=O)O)C(=O)N(C)[C@@H](Cc1ccccc1)C(N)=O ({C18 diacid-γGlu-AEEA-AEEA}-D[Phe(4-CH2SO3H)][Nle]GW[Nle][NMeD][NMeF]-NH2)
Response given: 9.50

Challenge: Complete the entry with pIC50 for CCCC[C@H](NC(=O)[C@H](Cc1ccc(OS(=O)(=O)O)cc1)NC(=O)[C@H](CC(=O)O)NC(=O)COCCOCCNC(=O)COCCOCCNC(=O)CC[C@H](NC(=O)CCCCCCCCCCCCCCCCC(=O)O)C(=O)O)C(=O)NCC(=O)N[C@@H](Cc1c[nH]c2ccccc12)C(=O)N[C@@H](CCCC)C(=O)N(C)[C@H](CC(=O)O)C(=O)N[C@@H](Cc1cccc2ccccc12)C(N)=O ({C18 diacid-γGlu-AEEA-AEEA}-D[sY][Nle]GW[Nle][dNMeD][1Nal]-NH2)
Response given: 10.13
